System: UO-31 renal
Test: NCI tumour cell line growth inhibition, 48 h
// reported TGI per item
ASSAY_ENDPOINT: TGI

COMPOUND	ASSAY_ENDPOINT	RESULT
CCCCCCc1cc2cc(-c3cn4c(n3)sc3ccccc34)c(=O)oc2cc1O	TGI	> 100 µM
CCCS(=O)c1nc(COC(=O)NC)c(COC(=O)NC)n1C (stereo not drawn)	TGI	> 100 µM
CCOC(=O)N/N=C(\CC)NO	TGI	> 100 µM

====

Tested on: NCI-H460 lung
Assay: NCI tumour cell line growth inhibition, 48 h
// reported TGI per item

COMPOUND	TGI
COc1ccc(/C=C2\COc3ccc(O)c(O)c3C2=O)cc1OC	5.02 µM
Cc1ccc(C)c(NC(=O)C(=O)C2C(=O)N(c3ccccc3)N=C2N)c1 (stereo not given)	> 100 µM
CC(=O)OC1CC(OC2C(O)CC(OC3C(O)CC(OC4CCC5(C)C(CCC6C5CCC5(C)C(C7=CC(=O)OC7)CCC65O)C4)OC3C)OC2C)OC(C)C1OC1OC(CO)C(O)C(O)C1O (stereo not given)	0.0245 µM
COc1cccc(N2CCN(c3ncnc4cc[nH]c34)CC2)c1	> 100 µM
O=C(Cn1c2c(c3ccccc31)CCCC2)N1CCCCC1	> 100 µM
C1=Nc2ccc(cc2)-c2ccc(cc2)N=Cc2ccc(cc2)OCc2cccc(n2)COc2ccc1cc2	> 100 µM
COc1ccc(/C=N/N=C(\N)NO)cc1F	> 100 µM
O=NN1CCN=C1c1ccc([N+](=O)[O-])cc1	> 100 µM
COc1cc2c3cc1Oc1c(OC)c(OC)cc4c1[C@@H](Cc1ccc(O)c(c1)Oc1ccc(cc1)C[C@@H]3N(C)CC2)N(C)CC4	75.6 µM
Cc1ccc(NC(=S)C#N)c(C)c1	> 100 µM
N#CC(C(=N/O)/C(=N\O)C(C#N)c1ccccc1)c1ccccc1 (stereo not given)	> 100 µM
Cc1ccc(C2[C@H]3C(=O)N(c4ccc(Cc5ccc(N6C(=O)[C@@H]7ON(c8ccccc8)C(c8ccc(C)cc8)[C@@H]7C6=O)cc5)cc4)C(=O)[C@H]3ON2c2ccccc2)cc1 (stereo not given in full)	> 100 µM
Cc1ccc2c(n1)NC(=O)C(Cc1ccccc1)(N=[N+]=[N-])C2=O (stereo not given)	> 100 µM
C=CCSC1=N/C(=C\c2ccc(OC)cc2)C(=O)N1CC=C	> 100 µM
N#C/C(=C\c1ccc([N+](=O)[O-])o1)c1n[nH]c(Cc2ccccc2)n1	12.2 µM
COC(=O)c1c2c(c(C)[n+]([O-])c1C)C(=O)C(NCc1ccc(F)cc1)=CC2=O	5.98 µM
COCCNCc1ccc(-c2cc3nccc(Oc4ccc(NC(=O)C5(C(=O)Nc6ccc(F)cc6)CC5)cc4F)c3s2)nc1	3.4 µM
C[C@@H](NC(=O)Cn1c(Cl)nc2ccccc21)c1ccccc1	> 100 µM
CC(=O)O[C@H]1CC[C@H]2[C@@H]3CCC4=C/C(=N/OCCN(C)C)CC[C@]4(C)[C@H]3CC[C@]12C	20.4 µM
CC(C)(C)n1c(=O)n(-c2ccccc2)n(C(C)(C)C)c1=O	> 100 µM
O=C(N=Nc1c(Cl)c(O)c2ccccc2c1O)C(=O)Nc1cccc(C(F)(F)F)c1	12.4 µM
COc1ccc(C2Oc3c(cccc3-c3c(-c4ccc(O)cc4)oc4cc(O)cc(O)c4c3=O)C(=O)C2O)cc1O (stereo not given)	> 100 µM
CC1(C)OC[C@H](COCOP2(=O)Oc3ccc4ccccc4c3-c3c(ccc4ccccc34)O2)O1	33.3 µM
CCN(CC)S(=O)(=O)c1cccc(-c2ccc3c(NC(=O)C4CC4)n[nH]c3c2)c1	> 6.25 µM
O=c1cc(-c2ccccc2)oc2cc(OCCCCCN3CCOCC3)cc(O)c12	> 100 µM
